Please provide measured IC50 for the entries that follow.
assayedTarget: Beta-secretase 1 (Homo sapiens, UniProt P56817)
Sequence (P56817 whole entry): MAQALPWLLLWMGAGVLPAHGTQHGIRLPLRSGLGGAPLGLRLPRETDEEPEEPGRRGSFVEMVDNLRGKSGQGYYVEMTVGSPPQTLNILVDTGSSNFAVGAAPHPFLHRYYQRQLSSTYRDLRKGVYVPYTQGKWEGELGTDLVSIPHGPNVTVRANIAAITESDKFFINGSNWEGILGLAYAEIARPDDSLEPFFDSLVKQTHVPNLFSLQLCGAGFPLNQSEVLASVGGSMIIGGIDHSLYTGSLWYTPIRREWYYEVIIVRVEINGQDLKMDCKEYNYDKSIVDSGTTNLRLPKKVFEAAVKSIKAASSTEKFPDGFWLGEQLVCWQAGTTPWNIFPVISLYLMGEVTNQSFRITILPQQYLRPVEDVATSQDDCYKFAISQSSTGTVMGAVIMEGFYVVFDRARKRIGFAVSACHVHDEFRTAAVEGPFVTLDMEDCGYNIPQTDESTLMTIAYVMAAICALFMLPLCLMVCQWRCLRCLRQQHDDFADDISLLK
measurementNotes: Inhibition of recombinant BACE1 (unknown origin) using FAM-SEVNLDAEFK-TAMRA as substrate incubated for 30 mins prior to substrate addition by fluorimetric analysis
studyConditions: read-out: IC50

Problem: Recall and state the measured IC50 for `NCc1ccc(CNC(=O)Cc2ccc(-c3cccc(C(F)(F)F)c3)cc2)cc1` .
Result: 58.9 µM

Problem: Report IC50 for NCc1ccc(CNC(=O)C(Cc2ccccc2)c2ccc(-c3ccccc3)cc2)cc1 (stereo not given)
Result: 26.9 µM

Problem: Quote IC50 reported for `O=C(Cc1ccc(-c2ccccc2)cc1)NCc1ccc(CN2Cc3ccccc3C2)cc1` please.
Result: 63.3 µM

Problem: Give recorded IC50. CC(C(=O)NCc1ccc(CN)cc1)c1ccc(-c2ccccc2)c(F)c1 (stereo not given)
Result: 77.1 µM

Problem: Indicate its recorded IC50; the compound in question is `NCc1ccc(CNC(=O)Cc2ccc(-c3ccccc3)cc2O)cc1`
Result: > 100 µM

Problem: Read off the recorded IC50 for `CCN(CC)Cc1ccc(CNC(=O)Cc2ccc(-c3ccccc3)cc2)cc1`
Result: > 100 µM

Problem: // fetch IC50 given entry `O=C(Cc1ccc(-c2ccccc2)cc1)NCc1ccc(CN2CCCC2)cc1`
Result: > 100 µM

Problem: Return value of IC50 for input `NCc1ccc(CNC(=O)Cc2ccc(-c3ccccc3)c(O)c2)cc1` , no commentary.
Result: > 100 µM

Problem: Using known records, supply IC50 for `C[C@@H](C(=O)NCc1ccc(CN)cc1)c1ccc(-c2ccccc2)c(F)c1`
Result: 85.7 µM

Problem: Consider the compound `NCc1ccc(CNC(=O)Cc2ccc(-c3c(F)c(F)c(F)c(F)c3F)cc2)cc1` and give its recorded IC50.
Result: 101 µM

Problem: Report measured IC50; entry is `CC[N+](CC)(CC)Cc1ccc(CNC(=O)Cc2ccc(-c3ccccc3)cc2)cc1`
Result: > 100 µM

Problem: Read off the recorded IC50 for `NCc1ccc(CNC(=O)Cc2ccc(-c3cc(C(F)(F)F)cc(C(F)(F)F)c3)cc2)cc1`
Result: 63.9 µM

Problem: Hello, please tell me recorded IC50 for this one: `NCc1ccc(CNC(=O)Cc2ccc(-c3ccc(O)cc3)cc2)cc1`
Result: > 100 µM

Problem: Hello, please tell me recorded IC50 for this one: `NCc1ccc(CNC(=O)Cc2ccc(-c3ccccc3)cc2)cc1`
Result: 323 µM

Problem: Return reported IC50. Input compound: CC(C)C(C(=O)NCc1ccc(CN)cc1)c1ccc(-c2ccccc2)cc1 (stereo not given)
Result: 33.5 µM
